From: paper PMC4336329

Biological target: human ether-à-go-go-related gene (hERG) potassium channel (human, UniProt Q12809);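 further: peak tail current of the secondary pulse compared with the same well before compound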
Sequence (Q12809 whole entry, looked up): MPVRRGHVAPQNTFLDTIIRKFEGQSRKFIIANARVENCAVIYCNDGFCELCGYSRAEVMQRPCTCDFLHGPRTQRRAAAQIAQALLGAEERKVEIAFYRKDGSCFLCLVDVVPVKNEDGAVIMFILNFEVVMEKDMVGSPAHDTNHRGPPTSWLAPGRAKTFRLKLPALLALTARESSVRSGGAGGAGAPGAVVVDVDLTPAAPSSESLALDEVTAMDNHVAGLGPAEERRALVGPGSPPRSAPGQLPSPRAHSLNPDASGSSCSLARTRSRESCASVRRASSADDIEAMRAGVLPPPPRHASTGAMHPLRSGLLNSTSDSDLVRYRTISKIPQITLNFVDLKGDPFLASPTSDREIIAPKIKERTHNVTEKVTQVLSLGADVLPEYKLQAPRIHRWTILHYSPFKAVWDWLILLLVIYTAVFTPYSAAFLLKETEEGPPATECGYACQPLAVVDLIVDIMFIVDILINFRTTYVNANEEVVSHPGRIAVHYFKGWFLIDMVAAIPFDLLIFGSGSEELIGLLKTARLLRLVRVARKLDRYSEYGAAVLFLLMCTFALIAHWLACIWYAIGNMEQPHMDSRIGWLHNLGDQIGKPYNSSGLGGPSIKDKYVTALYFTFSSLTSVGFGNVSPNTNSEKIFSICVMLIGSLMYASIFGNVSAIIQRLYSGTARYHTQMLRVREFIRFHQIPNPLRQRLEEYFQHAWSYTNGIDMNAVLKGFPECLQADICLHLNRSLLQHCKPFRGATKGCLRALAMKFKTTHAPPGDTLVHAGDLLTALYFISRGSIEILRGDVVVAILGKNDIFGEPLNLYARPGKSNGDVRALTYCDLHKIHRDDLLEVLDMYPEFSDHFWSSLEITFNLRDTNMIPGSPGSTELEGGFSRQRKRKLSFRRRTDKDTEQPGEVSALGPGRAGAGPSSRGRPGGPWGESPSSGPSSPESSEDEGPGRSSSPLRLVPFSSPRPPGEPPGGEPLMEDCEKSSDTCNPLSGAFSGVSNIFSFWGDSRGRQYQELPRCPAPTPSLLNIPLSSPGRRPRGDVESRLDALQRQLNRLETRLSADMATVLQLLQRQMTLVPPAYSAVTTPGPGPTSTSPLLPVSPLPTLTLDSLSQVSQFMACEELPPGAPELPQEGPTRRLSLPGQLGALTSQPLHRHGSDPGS
Experiment: primary screen, population patch clamp on CHO cells stably expressing hERG; higher = less effect of the substance
Hit rate of the full screen: of about 310,000 compounds, about 14,000 (4.5%) showed an effect of 50% or more. The effect is printed as a negative number. This is one part of a sample in which strong results are shown more often than they occur.
Would you mind telling me the reported hERG current change (%, negative = inhibition) at 10uM of each entry?
Give your result in % as a bare value.

The compound listed as O=C(NC1CCCC1)C(c1ccncc1)N(C(=O)c1csnn1)c1ccccc1 (stereo not shown) has a reported hERG current change (%, negative = inhibition) at 10uM of 15.1

The compound listed as CCCCc1cc(=O)oc2cc(OC(C)C(=O)NCc3ccccn3)c(Cl)cc12 (stereo not shown) has a reported hERG current change (%, negative = inhibition) at 10uM of -13.6

The compound listed as CN1C2C=C(N(CCc3c[nH]c4ccccc34)C(=O)c3ccc(Cl)cc3)CC1CC2.Cl (stereo not shown) has a reported hERG current change (%, negative = inhibition) at 10uM of -67

The compound listed as "O=S(=O)(c1ccc(NC(=S)N/N=C/c2c3ccccc3cc3ccccc23)cc1)N1CCOCC1" has a reported hERG current change (%, negative = inhibition) at 10uM of 8.09

The compound listed as "COc1ccc(OC)c2nc(-c3ccc4c(c3)OCO4)ccc12" has a reported hERG current change (%, negative = inhibition) at 10uM of 10.4

The compound listed as CC1=NN(C(N)=S)C(=O)C1N=Nc1ccccc1Cl (stereo not shown) has a reported hERG current change (%, negative = inhibition) at 10uM of 20.2

The compound listed as Cc1ccc(C(c2nnnn2CCc2ccccc2)N2CCC(C)CC2)cc1.Cl (stereo not shown) has a reported hERG current change (%, negative = inhibition) at 10uM of 13.8
